ASSAYED_SYSTEM: UniProt P32245
TEST_NAME: High and low density hMC4-R functional assay (cAMP, HEK293-T-REx-MC4-R cells)
Type: cell-based
CONDITION_NOTES: 10 ng/mL Doxycycline (high density hMC4-R system)
Positions of bridges follow the written chain, without caps; N, C: chain ends. Non-standard residues stand in square brackets, D forms with d. Residues, ends and D or L forms follow the SMILES beside them. dPhe(4-CN) = N#Cc1ccc(C[C@@H](N)C(=O)O)cc1; Orn = NCCC[C@H](N)C(=O)O
EC50 values, listed per item
Answer format: numeric, nM implied, no suffix.

Use the examples below as a reference point.
| COMPOUND | EC50, nM |
| --- | --- |
| CC(=O)N[C@H](CCCNC(=N)N)C(=O)N[C@H]1CC(=O)NCCCC[C@@H](C(N)=O)NC(=O)[C@H](Cc2c[nH]c3ccccc23)NC(=O)[C@H](CCCNC(=N)N)NC(=O)[C@@H](Cc2ccc(F)c(F)c2)NC(=O)[C@H](CCC(N)=O)NC1=O [Example 78] | 0.2 |
| CC(=O)N[C@@H](CCCNC(=N)N)C(=O)N[C@H]1CCC(=O)NCCC[C@@H](C(N)=O)NC(=O)[C@H](Cc2c[nH]c3ccccc23)NC(=O)[C@H](CCCNC(=N)N)NC(=O)[C@@H](Cc2ccc(F)c(F)c2)NC(=O)[C@H](CCN)NC1=O [Example 26] | 0.12 |

Let me check: CC(=O)N[C@@H](CCCNC(=N)N)C(=O)N[C@H]1CCC(=O)NCCC[C@@H](C(N)=O)NC(=O)[C@H](Cc2c[nH]c3ccccc23)NC(=O)[C@H](CCCNC(=N)N)NC(=O)[C@@H](Cc2ccc(C)cc2)NC(=O)[C@H](CCN)NC1=O [Example 15] , system UniProt P32245, measured EC50 is 0.2

Let me check: CC(=O)N[C@@H](CCCNC(=N)N)C(=O)N[C@H]1CCC(=O)NCCC[C@@H](C(N)=O)NC(=O)[C@H](Cc2c[nH]c3ccccc23)NC(=O)[C@H](CCCNC(=N)N)NC(=O)[C@@H](Cc2ccc(C#N)cc2)NC(=O)[C@H](CCC(=O)O)NC1=O [Example 108] (Ac-REE[dPhe(4-CN)]RW[Orn]-NH2; lactam 2-7) , system UniProt P32245, measured EC50 is 9

Let me check: COc1cccc(C[C@H]2NC(=O)[C@H](CCN)NC(=O)[C@@H](NC(=O)[C@H](CCCNC(=N)N)NC(C)=O)CCC(=O)NCCC[C@@H](C(N)=O)NC(=O)[C@H](Cc3c[nH]c4ccccc34)NC(=O)[C@H](CCCNC(=N)N)NC2=O)c1 [Example 87] , system UniProt P32245, measured EC50 is 0.065

====

EC50 values, listed per item
ASSAYED_SYSTEM: hMC4-R (Homo sapiens (Human), UniProt P32245)
Sequence (P32245 whole entry): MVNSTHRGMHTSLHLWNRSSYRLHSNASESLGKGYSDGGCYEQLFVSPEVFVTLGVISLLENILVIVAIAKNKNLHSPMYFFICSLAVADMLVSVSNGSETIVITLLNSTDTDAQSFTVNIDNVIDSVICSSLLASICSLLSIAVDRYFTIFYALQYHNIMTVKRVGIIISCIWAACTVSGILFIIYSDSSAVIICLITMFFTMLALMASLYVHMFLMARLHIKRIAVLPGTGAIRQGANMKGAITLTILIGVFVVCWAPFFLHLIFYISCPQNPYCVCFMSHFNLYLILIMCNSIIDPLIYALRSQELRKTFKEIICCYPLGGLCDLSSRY
TEST_NAME: High and low density hMC4-R functional assay (cAMP, HEK293-T-REx-MC4-R cells)
Format: cell-based
CONDITION_NOTES: 10 ng/mL Doxycycline (high density hMC4-R system)
Answer format: numeric, nM implied, no suffix.

Use the examples below as a reference point.
| COMPOUND | ASSAYED_SYSTEM | EC50 [nM] |
| --- | --- | --- |
| CC(=O)N[C@@H](CCCNC(=N)N)C(=O)N[C@H]1CCCNC(=O)CC[C@@H](C(N)=O)NC(=O)[C@H](Cc2c[nH]c3ccccc23)NC(=O)[C@H](CCCNC(=N)N)NC(=O)[C@@H](Cc2cc(F)c(F)c(F)c2)NC(=O)[C@H](CCC(N)=O)NC1=O | hMC4-R (Homo sapiens (Human), UniProt P32245) | 0.14 |
| CC(=O)N[C@@H](CCCNC(=N)N)C(=O)N[C@H]1CCC(=O)NCCC[C@@H](C(N)=O)NC(=O)[C@H](Cc2c[nH]c3ccccc23)NC(=O)[C@H](CCCNC(=N)N)NC(=O)[C@@H](Cc2cccc(Cl)c2)NC(=O)[C@H](CCN)NC1=O | hMC4-R (Homo sapiens (Human), UniProt P32245) | 0.095 |
| COc1ccc(C[C@H]2NC(=O)[C@H](CCN)NC(=O)[C@@H](NC(=O)[C@H](CCCNC(=N)N)NC(C)=O)CCC(=O)NCCC[C@@H](C(N)=O)NC(=O)[C@H](Cc3c[nH]c4ccccc34)NC(=O)[C@H](CCCNC(=N)N)NC2=O)cc1OC | hMC4-R (Homo sapiens (Human), UniProt P32245) | 2 |

Item: `CC(=O)N[C@@H](CCCNC(=N)N)C(=O)N[C@H]1CCC(=O)NCCC[C@@H](C(N)=O)NC(=O)[C@H](Cc2c[nH]c3ccccc23)NC(=O)[C@H](CCCNC(=N)N)NC(=O)[C@@H](Cc2ccc(O)cc2)NC(=O)[C@H](CCN)NC1=O` | EC50: 0.55

Item: `CC(=O)N[C@@H](CCCNC(=N)N)C(=O)N[C@H]1CCC(=O)NCCC[C@@H](C(N)=O)NC(=O)[C@H](Cc2c[nH]c3ccccc23)NC(=O)[C@H](CCCNC(=N)N)NC(=O)[C@@H](Cc2cccc(Cl)c2)NC(=O)[C@H](CO)NC1=O` | EC50: 1

====

ASSAYED_SYSTEM: UniProt:P32245
TEST_NAME: High and low density hMC4-R functional assay (cAMP, HEK293-T-REx-MC4-R cells)
Format: cell-based
CONDITION_NOTES: 0.1 ng/mL Doxycycline (low density hMC4-R system)
MEASURED_ENDPOINT: pEC50
Friendly reminder that pEC50 comes from taking -log10 of the concentration in mol/L.

| MOLECULE | MEASURED_ENDPOINT | MEASURED |
| --- | --- | --- |
| CC(=O)N[C@@H](CCCNC(=N)N)C(=O)N[C@H]1CCCNC(=O)CC[C@@H](C(N)=O)NC(=O)[C@H](Cc2c[nH]c3ccccc23)NC(=O)[C@H](CCCNC(=N)N)NC(=O)[C@@H](Cc2ccc(C#N)cc2)NC(=O)[C@H](CC(N)=O)NC1=O [Example 91] | pEC50 | 9.00 |

Now for the molecule whose pEC50 we want.
Item: CC(=O)N[C@@H](CCCNC(=N)N)C(=O)N[C@H]1CC(=O)NCCCC[C@@H](C(N)=O)NC(=O)[C@H](Cc2c[nH]c3ccccc23)NC(=O)[C@H](CCCNC(=N)N)NC(=O)[C@@H](Cc2ccc(C#N)cc2)NC(=O)[C@H](CCC(N)=O)NC1=O [Example 90] | pEC50: 8.40

====

ASSAYED_SYSTEM: hMC4-R (Homo sapiens (Human))
TEST_NAME: High and low density hMC4-R functional assay (cAMP, HEK293-T-REx-MC4-R cells)
Assay type: cell-based
CONDITION_NOTES: 10 ng/mL Doxycycline (high density hMC4-R system); NDP-α-MSH = 100%; read-out: Intrinsic Activity (%)
Positions of bridges follow the written chain, without caps; N, C: chain ends. Non-standard residues stand in square brackets, D forms with d. Residues, ends and D or L forms follow the SMILES beside them. dPhe(4-CN) = N#Cc1ccc(C[C@@H](N)C(=O)O)cc1; Orn = NCCC[C@H](N)C(=O)O
Emax values, listed per item
Answer by giving the amount and then stating its unit.

Use the examples below as a reference point.
| COMPOUND | ASSAYED_SYSTEM | Emax |
| --- | --- | --- |
| CC(=O)N[C@@H](CCCNC(=N)N)C(=O)N[C@H]1CCCNC(=O)CC[C@@H](C(N)=O)NC(=O)[C@H](Cc2c[nH]c3ccccc23)NC(=O)[C@H](CCCNC(=N)N)NC(=O)[C@@H](Cc2cc(F)cc(F)c2)NC(=O)[C@H](CC(N)=O)NC1=O | hMC4-R (Homo sapiens (Human)) | 80% |
| CC(=O)N[C@@H](CCCNC(=N)N)C(=O)N[C@H]1CCC(=O)NCCC[C@@H](C(N)=O)NC(=O)[C@H](Cc2c[nH]c3ccccc23)NC(=O)[C@H](CCCNC(=N)N)NC(=O)[C@@H](Cc2ccc(C#N)cc2)NC(=O)[C@H](CC(=O)O)NC1=O [Example 106] (Ac-RED[dPhe(4-CN)]RW[Orn]-NH2; lactam 2-7) | hMC4-R (Homo sapiens (Human)) | 77% |
| CC(=O)N[C@@H](CCCNC(=N)N)C(=O)N[C@H]1CCC(=O)NCCC[C@@H](C(N)=O)NC(=O)[C@H](Cc2c[nH]c3ccccc23)NC(=O)[C@H](CCCNC(=N)N)NC(=O)[C@@H](Cc2ccc(F)cc2)NC(=O)[C@H](CCC(N)=O)NC1=O | hMC4-R (Homo sapiens (Human)) | 89% |
| CC(=O)N[C@@H](CCCNC(=N)N)C(=O)N[C@H]1CCCNC(=O)CC[C@@H](C(N)=O)NC(=O)[C@H](Cc2c[nH]c3ccccc23)NC(=O)[C@H](CCCNC(=N)N)NC(=O)[C@@H](Cc2cc(F)c(F)c(F)c2)NC(=O)[C@H](CCC(N)=O)NC1=O | hMC4-R (Homo sapiens (Human)) | 100% |
| CC(=O)N[C@@H](CCCNC(=N)N)C(=O)N[C@H]1CCC(=O)NCCC[C@@H](C(N)=O)NC(=O)[C@H](Cc2c[nH]c3ccccc23)NC(=O)[C@H](CCCNC(=N)N)NC(=O)[C@@H](Cc2cccc(Cl)c2)NC(=O)[C@H]([C@@H](C)O)NC1=O | hMC4-R (Homo sapiens (Human)) | 89% |

Item: `CC(=O)N[C@@H](CCCNC(=N)N)C(=O)N[C@H]1CCCNC(=O)CC[C@@H](C(N)=O)NC(=O)[C@H](Cc2c[nH]c3ccccc23)NC(=O)[C@H](CCCNC(=N)N)NC(=O)[C@@H](Cc2ccccc2C(F)(F)F)NC(=O)[C@H](CCC(N)=O)NC1=O` | Emax: 108%

Item: `CC(=O)N[C@@H](CCCNC(=N)N)C(=O)N[C@H]1CCCNC(=O)CC[C@@H](C(N)=O)NC(=O)[C@H](Cc2c[nH]c3ccccc23)NC(=O)[C@H](CCCNC(=N)N)NC(=O)[C@@H](Cc2ccc(C#N)cc2)NC(=O)[C@H](CC(N)=O)NC1=O` | Emax: 96%

Item: `CC(=O)N[C@@H](CCCNC(=N)N)C(=O)N[C@H]1CCC(=O)NCCC[C@@H](C(N)=O)NC(=O)[C@H](Cc2c[nH]c3ccccc23)NC(=O)[C@H](CCCNC(=N)N)NC(=O)[C@@H](Cc2ccc(N)cc2)NC(=O)[C@H](CCN)NC1=O` | Emax: 94%

Item: `CC(=O)NCC[C@@H]1NC(=O)[C@@H](NC(=O)[C@H](CCCNC(=N)N)NC(C)=O)CCC(=O)NCCC[C@@H](C(N)=O)NC(=O)[C@H](Cc2c[nH]c3ccccc23)NC(=O)[C@H](CCCNC(=N)N)NC(=O)[C@@H](Cc2ccccc2Cl)NC1=O` | Emax: 98%

Item: `CC(=O)N[C@@H](CCCNC(=N)N)C(=O)N[C@H]1CCC(=O)NCCC[C@@H](C(N)=O)NC(=O)[C@H](Cc2c[nH]c3ccccc23)NC(=O)[C@H](CCCNC(=N)N)NC(=O)[C@@H](Cc2ccccc2C(F)(F)F)NC(=O)[C@H](CCC(N)=O)NC1=O` | Emax: 117%

Item: `CC(=O)N[C@@H](CCCNC(=N)N)C(=O)N[C@H]1CCC(=O)NCCC[C@@H](C(N)=O)NC(=O)[C@H](Cc2c[nH]c3ccccc23)NC(=O)[C@H](CCCNC(=N)N)NC(=O)[C@@H](Cc2ccc(F)cc2)NC(=O)[C@H](CC(N)=O)NC1=O` | Emax: 92%

Item: `CC(=O)N[C@@H](CCCNC(=N)N)C(=O)N[C@H]1CCC(=O)NCCC[C@@H](C(N)=O)NC(=O)[C@H](Cc2c[nH]c3ccccc23)NC(=O)[C@H](CCCNC(=N)N)NC(=O)[C@@H](Cc2ccccc2Cl)NC(=O)[C@@H]2CCCN2C1=O` | Emax: 89%

Item: `CC(=O)N[C@@H](CCCNC(=N)N)C(=O)N[C@H]1CCC(=O)NCCC[C@@H](C(N)=O)NC(=O)[C@H](Cc2c[nH]c3ccccc23)NC(=O)[C@H](CCCNC(=N)N)NC(=O)[C@@H](Cc2cccc([N+](=O)[O-])c2)NC(=O)[C@H](CCN)NC1=O` | Emax: 95%

Item: `CC(=O)N[C@@H](CCCNC(=N)N)C(=O)N[C@H]1CCC(=O)NCCC[C@@H](C(N)=O)NC(=O)[C@H](Cc2c[nH]c3ccccc23)NC(=O)[C@H](CCCNC(=N)N)NC(=O)[C@@H](Cc2ccc(F)c(F)c2)NC(=O)[C@H](CCN)NC1=O` | Emax: 90%
